# TEST_TARGET: SETD2(1434-1711) (Homo sapiens, UniProt Q9BYW2)
# Construct: SETD2 (1434-1711) Assay; catalogue N/A
# Sequence (Q9BYW2 1434-1711): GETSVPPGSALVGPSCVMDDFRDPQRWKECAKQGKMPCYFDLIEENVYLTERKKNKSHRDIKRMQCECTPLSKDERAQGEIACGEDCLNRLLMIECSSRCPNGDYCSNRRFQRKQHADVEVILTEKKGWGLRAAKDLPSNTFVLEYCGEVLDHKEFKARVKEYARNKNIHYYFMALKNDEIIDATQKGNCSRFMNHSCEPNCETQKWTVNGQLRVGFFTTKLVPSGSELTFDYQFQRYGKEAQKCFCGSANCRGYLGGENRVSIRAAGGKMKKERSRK
# PROCEDURE_SUMMARY: SETD2 (1434-1711) assay
# Assay type: biochemical
# RUN_PARAMETERS: read-out: SETD2 (1434-1711)
Label met when IC50 is strictly below 60 nM; at or above that, label not met.

>>> label_class("Cc1cccc2cc(C(=O)Nc3cc(CN4CCOCC4)ccn3)[nH]c12")
"not met"
>>> label_class("COCC(=O)N(C)C1CCN(C2CCCC(NC(=O)c3cc4c(F)ccc(C)c4[nH]3)C2)C1 (stereo not shown)")
"not met"
>>> label_class("Cc1cccc2cc(C(=O)N3CCN(CC(N)=O)CC3)[nH]c12")
"not met"
>>> label_class("Cc1ccc(F)c2cc(C(=O)NC3CCCC(N4CCC(N(CCO)S(C)(=O)=O)C4)C3)[nH]c12 (stereo not shown) [compound 1151]")
"not met"
>>> label_class("Cc1ccc(F)c2cc(C(=O)Nc3cccc(N4CCC5(CC4)COC5)c3)[nH]c12")
"met"
>>> label_class("Cc1cccc2cc(C(=O)NC(CN(C)C)c3cccnc3)[nH]c12 (stereo not shown)")
"not met"
>>> label_class("Cc1ccc(F)c2cc(C(=O)Nc3cccc(N4CCC(CO)(CO)CC4)c3)[nH]c12")
"met"
>>> label_class("Cc1ccc(F)c2cc(C(=O)N[C@@H]3CCC[C@H](N4CCN(C)C(=O)C4C)C3)[nH]c12 (stereo partly shown)")
"not met"
>>> label_class("COC(=O)CC(NC(=O)c1cc2cccc(C)c2[nH]1)c1ccc(Cl)cc1 (stereo not shown)")
"not met"
>>> label_class("CN/C(=C\\[N+](=O)[O-])N1CCN([C@H]2CCC[C@@H](NC(=O)c3cc4c(F)ccc(C)c4[nH]3)C2)CC1")
"met"
>>> label_class("Cc1ccc(F)c2cc(C(=O)NC3CCCC(N4CCCN(C)C(=O)C4)C3)[nH]c12 (stereo not shown) [compound 387]")
"not met"
>>> label_class("Cc1ccc(F)c2cc(C(=O)Nc3cccc(N4CCN(S(C)(=O)=O)CC4)c3)[nH]c12")
"not met"
>>> label_class("Cc1ccc(F)c2cc(C(=O)NC3CCCC(N4CCC(N(C)C(=O)CO)C4)C3)[nH]c12 (stereo not shown) [compound 996]")
"not met"
>>> label_class("Cc1ccc(F)c2cc(C(=O)N[C@@H]3CCC[C@@H](N4CCC5(CCC(=O)N5)CC4)C3)[nH]c12")
"not met"
